Target: Acetylcholinesterase (Homo sapiens); note: assay procedure not described here
Type: functional
quantity: AC50

{"compound": "COc1cc2c(cc1OC)CC(=O)N(CCCN(C)C[C@H]1Cc3cc(OC)c(OC)cc31)CC2 [IVABRADINE]", "AC50": "> 30 µM"}
{"compound": "CC(C)Cc1ccc(C(C)C(=O)O)cc1 (stereo not drawn) [IBUPROFEN]", "AC50": "> 30 µM"}

The compound CC[C@H]1OC(=O)[C@H](C)C(=O)[C@H](C)[C@@H](O[C@@H]2O[C@H](C)C[C@H](N(C)C)[C@H]2O)[C@](C)(OC)C[C@@H](C)C(=O)[C@H](C)[C@H]2N(CCCCn3cnc(-c4cccnc4)c3)C(=O)O[C@]12C [TELITHROMYCIN] showed AC50 equal to > 30 µM

###

Target: 5-hydroxytryptamine receptor 2C (Homo sapiens); note: assay procedure not described here
Sequence (P28335 whole entry): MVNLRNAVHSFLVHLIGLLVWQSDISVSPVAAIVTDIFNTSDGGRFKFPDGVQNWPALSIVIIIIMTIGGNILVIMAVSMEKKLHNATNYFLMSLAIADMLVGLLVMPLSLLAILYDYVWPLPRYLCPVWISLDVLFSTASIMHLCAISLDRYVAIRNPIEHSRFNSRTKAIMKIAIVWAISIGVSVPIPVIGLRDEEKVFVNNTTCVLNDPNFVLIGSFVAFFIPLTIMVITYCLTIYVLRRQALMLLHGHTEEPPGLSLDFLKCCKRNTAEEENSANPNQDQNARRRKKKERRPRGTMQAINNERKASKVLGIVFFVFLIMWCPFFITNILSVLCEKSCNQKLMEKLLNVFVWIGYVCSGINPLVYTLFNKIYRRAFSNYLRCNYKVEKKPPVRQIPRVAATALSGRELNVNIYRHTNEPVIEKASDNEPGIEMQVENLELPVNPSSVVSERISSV
What AC50 was measured for each of the following?

# example entries with known answers
{"compound": "CCCCC(=O)O[C@]1(C(=O)CO)[C@@H](C)C[C@H]2[C@@H]3CCC4=CC(=O)C=C[C@]4(C)[C@@]3(F)[C@@H](O)C[C@@]21C [BETAMETHASONE VALERATE]", "AC50": "> 30 µM"}
{"compound": "Cn1c(=O)cc(N2CCC[C@@H](N)C2)n(Cc2ccccc2C#N)c1=O", "AC50": "> 30 µM"}
{"compound": "OC[C@H]1O[C@@](CO)(O[C@H]2O[C@H](CO)[C@@H](O)[C@H](O)[C@H]2O)[C@@H](O)[C@@H]1O", "AC50": "> 30 µM"}

Okay, next one:
Response field AC50 (5-hydroxytryptamine receptor 2C (Homo sapiens)) for item CN(C)CCCNc1c2ccccc2nc2cccc([N+](=O)[O-])c12 : 2.7 µM

###

Molecular target: UniProtKB Q99808
What AC50 was measured for each of the following?

# example entries with known answers
{"compound": "CC1OC2(CS1)CN1CCC2CC1 (stereo not drawn)", "AC50": "> 10 µM"}
{"compound": "COc1ccccc1Oc1c(NS(=O)(=O)c2ccc(C(C)(C)C)cc2)nc(-c2ncccn2)nc1OCCO", "AC50": "> 30 µM"}
{"compound": "CN(C)CCC[C@@]1(c2ccc(F)cc2)OCc2cc(C#N)ccc21", "AC50": "> 30 µM"}

For each of the compounds below, note its AC50.
1. C[C@]12CC[C@@H]3c4ccc(O)cc4C[C@@H](CCCCCCCCC[S+]([O-])CCCC(F)(F)C(F)(F)F)[C@H]3[C@@H]1CC[C@@H]2O (stereo partly drawn)
2. CC(C(=O)O)c1ccc(-c2ccccc2)c(F)c1 (stereo not drawn)
3. Clc1ccc(C(Cn2ccnc2)OCc2ccsc2Cl)c(Cl)c1 (stereo not drawn)
4. CC(C)COCC(CN(Cc1ccccc1)c1ccccc1)N1CCCC1 (stereo not drawn)
5. C[N@+]1(CCF)[C@@H]2CC[C@H]1C[C@@H](OC(=O)C(O)(c1ccccc1)c1ccccc1)C2

1: > 30 µM; 2: > 10 µM; 3: > 30 µM; 4: > 30 µM; 5: > 30 µM

For each of the compounds below, note its AC50.
1. C=CCNc1nc(NCC=C)nc(N2CCN(C(c3ccc(F)cc3)c3ccc(F)cc3)CC2)n1
2. C[C@H](Cc1ccc(O)c(O)c1)[C@@H](C)Cc1ccc(O)c(O)c1
3. CCCCCCCCCCCCCCCCCCCCCC(=O)Nc1ccn([C@@H]2O[C@H](CO)[C@@H](O)[C@@H]2O)c(=O)n1
4. O=C(O)c1cn(C2CC2)c2cc(N3CCNCC3)c(F)cc2c1=O
5. [H]/N=C(/N)N/C(=N/[H])NCCc1ccccc1
6. CN(C)CCc1c[nH]c2ccc(Cn3cncn3)cc12

> 30 µM
> 30 µM
> 30 µM
> 30 µM
> 30 µM
> 30 µM

For each of the compounds below, note its AC50.
1. COc1cc2c(cc1OC)C(CCc1ccc(Cl)cc1)N(C)CC2 (stereo not drawn)
2. O=C1CCc2cc(OCCCCc3nnnn3C3CCCCC3)ccc2N1
3. C/N=C(\NC)NCc1ccccc1
4. CC(C)(C)C(=O)OCC(=O)[C@H]1CC[C@H]2[C@@H]3CCC4=CC(=O)CC[C@]4(C)[C@H]3CC[C@]12C [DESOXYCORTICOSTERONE PIVALATE]

> 30 µM
30 µM
> 30 µM
> 10 µM

###

Molecular target: Gamma-aminobutyric acid receptor subunit alpha-1/alpha-2/beta-2/gamma-2 (Homo sapiens, UniProt P14867+P18507+P47869+P47870); note: assay procedure not described here
Sequence (P14867 whole entry): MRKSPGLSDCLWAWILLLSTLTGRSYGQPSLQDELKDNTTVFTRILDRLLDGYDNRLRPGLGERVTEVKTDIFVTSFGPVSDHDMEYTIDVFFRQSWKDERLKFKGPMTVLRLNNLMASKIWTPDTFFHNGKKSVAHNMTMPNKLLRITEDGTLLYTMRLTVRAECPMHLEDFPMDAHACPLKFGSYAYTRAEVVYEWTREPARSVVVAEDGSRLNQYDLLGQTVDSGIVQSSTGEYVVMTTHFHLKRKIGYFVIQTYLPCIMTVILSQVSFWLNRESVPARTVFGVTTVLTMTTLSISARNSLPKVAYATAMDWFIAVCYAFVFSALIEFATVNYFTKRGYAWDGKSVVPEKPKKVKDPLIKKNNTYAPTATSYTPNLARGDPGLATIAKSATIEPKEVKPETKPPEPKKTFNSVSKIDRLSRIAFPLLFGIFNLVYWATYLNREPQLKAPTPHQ
Sequence (P47870 whole entry): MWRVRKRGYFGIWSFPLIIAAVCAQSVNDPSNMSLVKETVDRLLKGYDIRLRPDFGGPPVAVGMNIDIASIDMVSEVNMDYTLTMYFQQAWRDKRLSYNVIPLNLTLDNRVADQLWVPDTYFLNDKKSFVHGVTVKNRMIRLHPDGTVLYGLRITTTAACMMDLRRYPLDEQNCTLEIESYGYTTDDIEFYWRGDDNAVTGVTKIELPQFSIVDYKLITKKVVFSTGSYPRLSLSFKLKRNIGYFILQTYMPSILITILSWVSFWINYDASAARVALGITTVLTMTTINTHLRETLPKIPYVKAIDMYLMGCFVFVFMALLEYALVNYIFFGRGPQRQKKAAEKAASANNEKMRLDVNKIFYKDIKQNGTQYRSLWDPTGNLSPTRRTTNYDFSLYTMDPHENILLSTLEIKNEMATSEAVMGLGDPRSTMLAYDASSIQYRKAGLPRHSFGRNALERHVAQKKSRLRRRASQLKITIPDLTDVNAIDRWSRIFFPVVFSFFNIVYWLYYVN
Sequence (P18507 whole entry): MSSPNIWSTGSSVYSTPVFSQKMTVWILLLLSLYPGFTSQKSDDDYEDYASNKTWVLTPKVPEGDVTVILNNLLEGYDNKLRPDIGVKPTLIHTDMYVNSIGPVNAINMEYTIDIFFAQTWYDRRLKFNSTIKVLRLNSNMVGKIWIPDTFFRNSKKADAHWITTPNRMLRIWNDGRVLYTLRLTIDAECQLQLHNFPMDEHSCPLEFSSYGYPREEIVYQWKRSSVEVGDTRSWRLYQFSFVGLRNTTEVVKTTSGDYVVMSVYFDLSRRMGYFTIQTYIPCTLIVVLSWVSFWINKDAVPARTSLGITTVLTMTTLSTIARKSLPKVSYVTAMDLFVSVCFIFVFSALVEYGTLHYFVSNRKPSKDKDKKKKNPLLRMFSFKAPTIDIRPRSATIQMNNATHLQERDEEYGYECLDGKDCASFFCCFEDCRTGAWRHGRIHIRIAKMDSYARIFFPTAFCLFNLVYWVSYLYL
Sequence (P47869 whole entry): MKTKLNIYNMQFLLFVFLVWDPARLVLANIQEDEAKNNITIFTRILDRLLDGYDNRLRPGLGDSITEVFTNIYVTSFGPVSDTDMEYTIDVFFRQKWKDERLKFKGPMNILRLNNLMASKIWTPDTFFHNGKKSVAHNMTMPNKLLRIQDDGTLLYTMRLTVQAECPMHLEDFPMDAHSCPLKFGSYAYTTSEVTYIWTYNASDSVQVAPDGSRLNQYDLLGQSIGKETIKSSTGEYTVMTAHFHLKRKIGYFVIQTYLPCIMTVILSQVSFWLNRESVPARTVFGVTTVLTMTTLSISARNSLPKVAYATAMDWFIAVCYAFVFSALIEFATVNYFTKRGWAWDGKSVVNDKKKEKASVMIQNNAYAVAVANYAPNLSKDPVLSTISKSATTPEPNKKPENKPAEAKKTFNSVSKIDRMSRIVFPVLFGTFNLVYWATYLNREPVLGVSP
Type: functional, cell-based
quantity: AC50

{"compound": "COc1cc2nccc(Oc3ccc(NC(=O)C4(C(=O)Nc5ccc(F)cc5)CC4)cc3)c2cc1OC [CABOZANTINIB]", "AC50": "> 30 µM"}
{"compound": "Oc1ccc2c(c1)CC[C@H](c1ccccc1)[C@@H]2c1ccc(OCCN2CCCC2)cc1", "AC50": "> 30 µM"}
{"compound": "O=[N+]([O-])c1ccc(O)c2ncccc12", "AC50": "> 30 µM"}
{"compound": "CN(C)CCC[C@@]1(c2ccc(F)cc2)OCc2cc(C#N)ccc21", "AC50": "> 30 µM"}
{"compound": "C/N=C(\\NC)NCc1ccccc1", "AC50": "> 30 µM"}
{"compound": "CCCN(CCC)C(=O)Cc1c(-c2ccc(Cl)cc2)nc2ccc(Cl)cn12", "AC50": "> 10 µM"}

For each of the compounds below, note its AC50.
1. CN1C[C@H](C(=O)N[C@]2(C)O[C@@]3(O)[C@@H]4CCCN4C(=O)[C@H](Cc4ccccc4)N3C2=O)C=C2c3cccc4[nH]cc(c34)C[C@H]21
2. C[C@@H](Oc1cc(-c2cnn(C3CCNCC3)c2)cnc1N)c1c(Cl)ccc(F)c1Cl

1: > 30 µM; 2: > 30 µM

###

What AC50 was measured for each of the following?
Target: Sodium channel protein type 5 subunit alpha (Homo sapiens); note: assay procedure not described here
Sequence (Q14524 whole entry): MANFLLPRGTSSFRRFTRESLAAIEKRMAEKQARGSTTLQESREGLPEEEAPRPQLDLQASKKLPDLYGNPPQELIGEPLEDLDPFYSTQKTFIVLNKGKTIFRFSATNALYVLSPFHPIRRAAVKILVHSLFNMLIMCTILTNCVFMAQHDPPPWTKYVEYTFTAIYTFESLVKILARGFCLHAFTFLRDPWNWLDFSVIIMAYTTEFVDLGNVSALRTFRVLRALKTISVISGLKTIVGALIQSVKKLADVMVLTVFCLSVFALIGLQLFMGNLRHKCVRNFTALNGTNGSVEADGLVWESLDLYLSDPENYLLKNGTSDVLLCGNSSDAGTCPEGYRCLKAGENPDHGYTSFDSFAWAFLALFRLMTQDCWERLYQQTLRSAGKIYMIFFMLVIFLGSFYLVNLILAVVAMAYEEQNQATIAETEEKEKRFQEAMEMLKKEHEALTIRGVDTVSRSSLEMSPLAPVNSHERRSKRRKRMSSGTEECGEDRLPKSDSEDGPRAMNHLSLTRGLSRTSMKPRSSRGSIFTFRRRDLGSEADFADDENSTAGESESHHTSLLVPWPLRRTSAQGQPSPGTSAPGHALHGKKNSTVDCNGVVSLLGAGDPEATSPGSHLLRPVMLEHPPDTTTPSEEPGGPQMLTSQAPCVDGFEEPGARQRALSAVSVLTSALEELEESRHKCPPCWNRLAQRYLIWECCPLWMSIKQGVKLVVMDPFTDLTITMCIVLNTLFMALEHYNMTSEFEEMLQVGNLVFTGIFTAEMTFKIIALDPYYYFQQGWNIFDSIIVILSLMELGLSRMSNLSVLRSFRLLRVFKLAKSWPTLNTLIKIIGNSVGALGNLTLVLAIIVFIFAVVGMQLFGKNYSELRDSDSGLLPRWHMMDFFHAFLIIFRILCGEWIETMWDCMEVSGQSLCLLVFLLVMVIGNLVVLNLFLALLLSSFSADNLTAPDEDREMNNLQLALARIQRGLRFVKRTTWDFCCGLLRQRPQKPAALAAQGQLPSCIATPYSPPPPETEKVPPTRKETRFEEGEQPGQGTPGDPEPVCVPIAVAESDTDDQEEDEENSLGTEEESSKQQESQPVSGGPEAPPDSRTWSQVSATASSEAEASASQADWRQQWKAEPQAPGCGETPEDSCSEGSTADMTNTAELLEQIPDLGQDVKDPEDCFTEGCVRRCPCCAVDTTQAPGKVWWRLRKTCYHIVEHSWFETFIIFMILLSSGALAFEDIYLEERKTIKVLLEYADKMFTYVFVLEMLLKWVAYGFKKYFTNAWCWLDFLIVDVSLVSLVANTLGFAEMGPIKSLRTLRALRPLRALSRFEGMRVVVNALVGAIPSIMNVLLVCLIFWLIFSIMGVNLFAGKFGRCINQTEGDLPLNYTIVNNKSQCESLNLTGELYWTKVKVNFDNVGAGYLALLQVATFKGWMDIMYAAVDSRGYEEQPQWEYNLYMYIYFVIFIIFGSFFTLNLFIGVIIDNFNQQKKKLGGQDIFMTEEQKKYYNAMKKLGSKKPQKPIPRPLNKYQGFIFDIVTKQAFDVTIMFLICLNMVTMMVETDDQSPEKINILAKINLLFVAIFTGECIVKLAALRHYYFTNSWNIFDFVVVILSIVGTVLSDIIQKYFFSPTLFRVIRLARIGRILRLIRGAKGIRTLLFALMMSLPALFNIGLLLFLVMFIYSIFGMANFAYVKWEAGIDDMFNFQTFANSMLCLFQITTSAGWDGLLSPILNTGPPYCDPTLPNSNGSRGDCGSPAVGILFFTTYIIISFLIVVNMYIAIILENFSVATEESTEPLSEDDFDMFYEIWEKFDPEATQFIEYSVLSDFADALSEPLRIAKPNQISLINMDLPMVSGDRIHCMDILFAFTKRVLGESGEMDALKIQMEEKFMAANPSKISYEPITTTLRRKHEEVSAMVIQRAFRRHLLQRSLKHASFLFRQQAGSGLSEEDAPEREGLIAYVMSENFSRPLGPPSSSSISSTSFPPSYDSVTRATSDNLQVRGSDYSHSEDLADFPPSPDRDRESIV
Type: functional, cell-based

# example entries with known answers
{"molecule": "OC1(c2ccc(Cl)cc2)c2ccccc2C2=NCCN21 (centres undefined)", "AC50": "> 50 µM"}
{"molecule": "CCOC(=O)C1=C(C)NC(C)=C(C(=O)OC)C1c1cccc([N+](=O)[O-])c1 (centres undefined)", "AC50": "5 µM"}
{"molecule": "C[C@]12CC[C@@H]3c4ccc(O)cc4C[C@@H](CCCCCCCCC[S+]([O-])CCCC(F)(F)C(F)(F)F)[C@H]3[C@@H]1CC[C@@H]2O (some centres undefined)", "AC50": "> 10 µM"}
{"molecule": "O=C1CN(/N=C/c2ccc(-c3ccc([N+](=O)[O-])cc3)o2)C(O)=N1", "AC50": "> 50 µM"}
{"molecule": "CCN1CCN(Cc2ccc(Nc3ncc(F)c(-c4cc(F)c5nc(C)n(C(C)C)c5c4)n3)nc2)CC1", "AC50": "> 50 µM"}

For each of the molecules below, note its AC50.
1. Cn1c(=O)cc(N2CCC[C@@H](N)C2)n(Cc2ccccc2C#N)c1=O
2. COc1cc2nccc(Oc3ccc(NC(=O)C4(C(=O)Nc5ccc(F)cc5)CC4)cc3)c2cc1OC [CABOZANTINIB]

> 150 µM
> 3 µM

###

Molecular target: 5-hydroxytryptamine receptor 2B (Homo sapiens, UniProt P41595); note: assay procedure not described here
Format: functional, cell-based
quantity: AC50

{"compound": "CCN(CC)CCNC(=O)c1c(C)[nH]c(/C=C2\\C(=O)Nc3ccc(F)cc32)c1C [SUNITINIB]", "quantity": "AC50", "endpoint result": "5.2 µM"}
{"compound": "CCC1(c2ccccc2)CCC(=O)NC1=O (stereo not given) [GLUTETHIMIDE]", "quantity": "AC50", "endpoint result": "> 10 µM"}
{"compound": "CCOC(=O)O[C@]1(C(=O)OCCl)CC[C@H]2[C@@H]3CCC4=CC(=O)C=C[C@]4(C)[C@H]3[C@@H](O)C[C@@]21C [LOTEPREDNOL ETABONATE]", "quantity": "AC50", "endpoint result": "> 30 µM"}
{"compound": "C=CCNc1nc(NCC=C)nc(N2CCN(C(c3ccc(F)cc3)c3ccc(F)cc3)CC2)n1 [ALMITRINE]", "quantity": "AC50", "endpoint result": "> 30 µM"}

Okay, next one:
The compound CCCCC1C(=O)N(c2ccccc2)N(c2ccccc2)C1=O [PHENYLBUTAZONE] showed AC50 equal to > 10 µM

###

Target: Muscarinic acetylcholine receptor M2 (Homo sapiens); note: assay procedure not described here
Sequence (P08172 whole entry): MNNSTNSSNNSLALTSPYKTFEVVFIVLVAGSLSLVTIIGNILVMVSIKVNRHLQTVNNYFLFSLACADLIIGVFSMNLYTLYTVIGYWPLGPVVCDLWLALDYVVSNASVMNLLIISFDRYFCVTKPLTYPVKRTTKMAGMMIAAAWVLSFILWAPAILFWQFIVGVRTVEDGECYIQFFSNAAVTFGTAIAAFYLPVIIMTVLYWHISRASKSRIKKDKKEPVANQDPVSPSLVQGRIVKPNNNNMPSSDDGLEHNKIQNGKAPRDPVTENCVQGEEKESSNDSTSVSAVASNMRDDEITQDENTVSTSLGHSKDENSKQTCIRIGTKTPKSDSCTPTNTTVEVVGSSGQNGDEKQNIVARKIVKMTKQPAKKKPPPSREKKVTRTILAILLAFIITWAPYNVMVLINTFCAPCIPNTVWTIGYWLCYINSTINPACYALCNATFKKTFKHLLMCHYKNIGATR
Format: functional, cell-based
quantity: AC50

# example entries with known answers
{"compound": "CCC(C)C(CC)C(N)=O (centres undefined) [VALNOCTAMIDE]", "AC50": "> 30 µM"}
{"compound": "Cc1cccc(N2CC(CO)OC2=O)c1 (centres undefined)", "AC50": "> 30 µM"}

For each of the compounds below, note its AC50.
1. CC(N)C12CC3CC(CC(C3)C1)C2 (centres undefined)
2. NC1CCN(c2nc3c(cc2F)c(=O)c(C(=O)O)cn3-c2ccc(F)cc2F)C1 (centres undefined)
3. O=C1CN(/N=C/c2ccc(-c3ccc([N+](=O)[O-])cc3)o2)C(O)=N1
4. Cc1onc(-c2ccccc2)c1-c1ccc(S(N)(=O)=O)cc1
5. COc1ccc(CC2c3cc(OC)c(OC)cc3CC[N+]2(C)CCC(=O)OCCCCCOC(=O)CC[N+]2(C)CCc3cc(OC)c(OC)cc3C2Cc2ccc(OC)c(OC)c2)cc1OC (centres undefined)
6. Nc1ccc(S(=O)(=O)Nc2nccs2)cc1

1: > 10 µM; 2: > 30 µM; 3: > 10 µM; 4: > 10 µM; 5: > 30 µM; 6: > 10 µM

Measured values drawn from ChEMBL document CHEMBL5291721 for this set.
